Experiment: In vivo pharmacokinetic assay in dogs
Set-up: species or system Male Beagle dogs
Conditions: Oral, 1 mg/kg
Experimental Readout: Cmax (nM)
// return numeric value only (unit: nM, not printed)

Req: I have this compound here, CCc1nc(C(N)=O)c(Nc2ccc(N3CCC4(CCN(C)CC4)CC3)c(C)c2)nc1NC1CCOCC1.O=C(O)C(F)(F)F , and I need its recorded Cmax.
Resp: 21.1

---

Assay: In vivo pharmacokinetic assay in rats
Parameters: species or system SD male rats
Details: Oral, 20 mg/kg
Experimental Readout: Cmax (nM)
Give a bare numeral; the unit nM is implied.

Req: Dear colleague, I am looking for the recorded Cmax of the following compound: CCc1nc(C(N)=O)c(Nc2ccc(N3CCC4(CCN(C)CC4)CC3)c(C)c2)nc1NC1CCOCC1
Resp: 483

---

Biological target: UniProt:P30530
Sequence (P30530 26-894): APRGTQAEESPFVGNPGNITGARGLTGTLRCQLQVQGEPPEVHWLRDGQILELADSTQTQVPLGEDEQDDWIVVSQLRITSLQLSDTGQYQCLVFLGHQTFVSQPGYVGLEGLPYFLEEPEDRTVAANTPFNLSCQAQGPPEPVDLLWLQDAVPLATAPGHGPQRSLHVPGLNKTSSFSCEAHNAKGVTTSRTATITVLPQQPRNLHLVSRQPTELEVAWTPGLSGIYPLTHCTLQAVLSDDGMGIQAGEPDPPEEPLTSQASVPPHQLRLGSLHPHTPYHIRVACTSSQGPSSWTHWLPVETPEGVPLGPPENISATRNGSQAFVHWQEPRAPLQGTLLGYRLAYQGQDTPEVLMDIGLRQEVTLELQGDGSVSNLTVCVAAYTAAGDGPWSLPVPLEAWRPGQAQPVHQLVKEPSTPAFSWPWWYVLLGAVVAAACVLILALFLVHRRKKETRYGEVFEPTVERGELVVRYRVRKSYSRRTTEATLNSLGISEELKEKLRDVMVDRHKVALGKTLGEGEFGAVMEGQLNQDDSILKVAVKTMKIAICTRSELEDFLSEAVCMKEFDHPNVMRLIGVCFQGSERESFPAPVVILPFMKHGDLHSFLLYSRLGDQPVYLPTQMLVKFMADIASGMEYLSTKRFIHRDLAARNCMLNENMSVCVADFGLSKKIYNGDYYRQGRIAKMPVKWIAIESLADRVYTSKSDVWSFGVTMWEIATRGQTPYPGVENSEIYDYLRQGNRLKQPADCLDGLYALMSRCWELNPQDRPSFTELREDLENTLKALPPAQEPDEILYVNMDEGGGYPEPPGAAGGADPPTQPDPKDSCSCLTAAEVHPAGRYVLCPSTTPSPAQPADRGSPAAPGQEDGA
Where a name gives a salt, the structure may show the parent alone.
Give measured IC50 for each item. Keep answers brief.
Numeric answer only, unit nM assumed.

Req: For the molecule shown here, CCc1nc(C(N)=O)c(Nc2ccc(N3CCC4(CCN(C)CC4)CC3)c(C)c2)nc1NC1CCOCC1.O=C(O)C(F)(F)F , give the reported IC50.
Resp: 1.22

Req: Query (molecule): CCc1nc(C(N)=O)c(Nc2ccc(N3CCC4(CCN(C)CC4)CC3)c(OC)c2)nc1NC1CCOCC1 [Trifluoroacetate salt of compound A, reference compound] ; field requested: IC50
Resp: 5.76

---

Test: In vivo pharmacokinetic assay in rats
Design: species or system SD male rats
Details: male, SD, rat, plasma, iv, Injection, 1 mg/kg
Experimental Readout: AUC(0-t) (µM·h)
Kindly provide the numeric value in µM·h only, without the unit symbol.

Req: Quick one: AUC(0-t) for CCc1nc(C(N)=O)c(Nc2ccc(N3CCC(N4CCN(C)CC4)CC3)c(OC)c2)nc1NC1CCOCC1 [Compound B, reference compound] ?
Resp: 0.587

---

Test: In vivo pharmacokinetic assay in rats
Design: species or system SD male rats
Conditions: male, SD, rat, plasma, Oral, 2.5 mg/kg
Experimental Readout: bioavailability (%)
Kindly provide the numeric value in % only, without the unit symbol.

Req: Which bioavailability is reported for this molecule? CCc1nc(C(N)=O)c(Nc2ccc(N3CCC(N4CCN(C)CC4)CC3)c(OC)c2)nc1NC1CCOCC1 [Compound B, reference compound]
Resp: 24.6

---

Target: FLT3(D835H) (Homo sapiens, UniProt P36888, D835H)
Sequence (P36888 27-993 D835H): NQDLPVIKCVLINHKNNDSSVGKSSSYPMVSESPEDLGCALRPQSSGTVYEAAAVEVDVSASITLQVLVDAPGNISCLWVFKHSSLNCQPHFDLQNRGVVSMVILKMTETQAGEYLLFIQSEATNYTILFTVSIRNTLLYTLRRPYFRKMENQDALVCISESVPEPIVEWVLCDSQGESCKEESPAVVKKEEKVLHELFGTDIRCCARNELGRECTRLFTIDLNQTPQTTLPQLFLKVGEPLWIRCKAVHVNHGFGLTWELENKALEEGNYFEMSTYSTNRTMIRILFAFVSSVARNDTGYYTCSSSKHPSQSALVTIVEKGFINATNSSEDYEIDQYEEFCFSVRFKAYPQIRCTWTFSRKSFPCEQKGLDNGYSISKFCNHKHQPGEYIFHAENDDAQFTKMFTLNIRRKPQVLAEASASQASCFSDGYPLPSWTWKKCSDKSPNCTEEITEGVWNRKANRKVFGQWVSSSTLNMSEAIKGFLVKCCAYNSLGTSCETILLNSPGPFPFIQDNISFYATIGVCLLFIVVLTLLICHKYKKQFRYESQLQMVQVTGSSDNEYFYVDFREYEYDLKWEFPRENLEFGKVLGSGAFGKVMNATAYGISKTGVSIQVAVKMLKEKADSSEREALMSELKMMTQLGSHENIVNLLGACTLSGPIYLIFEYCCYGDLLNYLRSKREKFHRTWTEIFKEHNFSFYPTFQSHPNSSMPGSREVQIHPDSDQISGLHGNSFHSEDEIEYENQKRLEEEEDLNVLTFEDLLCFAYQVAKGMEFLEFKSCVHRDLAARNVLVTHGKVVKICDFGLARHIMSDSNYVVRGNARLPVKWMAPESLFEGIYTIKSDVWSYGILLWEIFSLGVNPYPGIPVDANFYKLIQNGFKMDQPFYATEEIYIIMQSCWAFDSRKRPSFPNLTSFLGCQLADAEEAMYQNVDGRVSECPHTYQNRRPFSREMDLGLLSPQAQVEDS
Experimental Readout: pKd
Hey, just a heads up that pKd is the negative log base 10 of the concentration in molar.

Req: State its pKd on FLT3(D835H) (Homo sapiens, UniProt P36888, D835H): CCc1nc(C(N)=O)c(Nc2ccc(N3CCC4(CCN(C)CC4)CC3)c(C)c2)nc1NC1CCOCC1.O=C(O)C(F)(F)F
Resp: 8.64

---

Experiment: In vivo pharmacokinetic assay in mice
Parameters: species or system CD-1 male mice
Conditions: male, CD-1, mouse, plasma, iv, Injection (1 mg/kg)
Experimental Readout: AUC(0-t) (µM·h)
Entry rule: numbers only, all in µM·h.

Req: Would you kindly share the measured AUC(0-t) for CCc1nc(C(N)=O)c(Nc2ccc(N3CCC4(CCN(C)CC4)CC3)c(OC)c2)nc1NC1CCOCC1 [Compound A] ?
Resp: 0.403

Req: // lookup AUC(0-t) for CCc1nc(C(N)=O)c(Nc2ccc(N3CCC(N4CCN(C)CC4)CC3)c(OC)c2)nc1NC1CCOCC1 [Compound B, reference compound]
Resp: 0.605

---

Test: In vivo pharmacokinetic assay in mice
Design: species or system CD-1 male mice
Details: male, CD-1, mouse, plasma, Oral administration (2.5 mg/kg), read-out: Tmax
Provide the reported Tmax of each item.
Give your result in h as a bare value.

Req: // lookup Tmax for CCc1nc(C(N)=O)c(Nc2ccc(N3CCC(N4CCN(C)CC4)CC3)c(OC)c2)nc1NC1CCOCC1 [Compound B, reference compound]
Resp: 1

Req: Please look up its Tmax: CCc1nc(C(N)=O)c(Nc2ccc(N3CCC4(CCN(C)CC4)CC3)c(OC)c2)nc1NC1CCOCC1
Resp: 1

---

Assay: In vivo pharmacokinetic assay in rats
Parameters: species or system SD male rats
Conditions: male, SD, rat, plasma, iv, Injection, 1 mg/kg
Experimental Readout: clearance (mL/min/kg)
Quick note: give the figure in mL/min/kg, leave out the unit.

Req: Fill in: clearance of CCc1nc(C(N)=O)c(Nc2ccc(N3CCC(N4CCN(C)CC4)CC3)c(OC)c2)nc1NC1CCOCC1 [Compound B, reference compound] is ___
Resp: 44

---

Molecular target: FLT3(ITD, D835V) (Homo sapiens, UniProt P36888, D835V, form not given)
Construct: fused on or other part: DNA tag for the qPCR read-out (the KINOMEscan format)
Experimental Readout: Kd (pM)
Supply the numeric figure in pM, leaving out any unit text.

Req: Looking for the measured Kd of CCc1nc(C(N)=O)c(Nc2ccc(N3CCC4(CCN(C)CC4)CC3)c(C)c2)nc1NC1CCOCC1.O=C(O)C(F)(F)F , can you help?
Resp: 200
